Measured values drawn from the RNAGym collection of RNA variant scans (doi:10.7554/elife.80360) for this set.

B1: CPEB3 Ribozyme (parent)
chain: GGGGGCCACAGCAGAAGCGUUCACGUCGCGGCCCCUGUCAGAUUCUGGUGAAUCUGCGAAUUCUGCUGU

# Variants of: B1
# TEST DESCRIPTION: self-cleavage, relative activity (ratio to wild type); higher = more cleavage; co-transcriptional
MEASURED QUANTITY: self-cleavage

> print(dat)
    mutant.name  result
 1    C27A C29A   0.184
 2    A15U U62A    1.01
 3    A16U C29U   0.117
 4     G5A A59U   0.415
 5    U26G U62A   0.818
 6    G14U C33G   0.341
 7    U20G G31U   0.128
 8    A15U U67C   0.827
 9    C57A U67A   0.275
10     G5U C29U   0.103
11     G2C A13C  0.0327
12    U26C C34A   0.731
13    G47U U64A   0.904
14         A59C   0.788
15    C18G U46G   0.226
16    A10G C12U   0.948
17    A40G A59U   0.691
18    C34U C66G    0.95
19    U36A U69G   0.347
20    A23U G65U   0.811
21    C22U G30U   0.221
22    U44A C54U   0.923
23    C24G U69G    0.63
24     A8C C12A   0.637
25    G25C U67C   0.115
26    A15G A16C   0.145
27    C45U C57U   0.317
28    G47C G50A   0.965
29    C24A U64C   0.471
30    G11U C45G   0.772
31    G11U C54A   0.361
32    A13G A40C   0.306
33    A16U G17C   0.193
34     C6A U55G     0.2
35    A13G U49C    1.01
36     G5C A10U   0.341
37    C33A C39U   0.367
38    A16U C24U   0.337
39     G1C U21A   0.246
40    C33G U49G   0.692
41    C29A G47A   0.796
42    G50U U67G    1.05
43     G4A U26A   0.604
44    A10U C34U   0.985
45    U62A U69C    1.09
46      G3C C6A  0.0513
47    U36A U64C   0.298
48     C6U G50U   0.979
49    U62C C66U   0.654
50    C32G C54U   0.594
51    C54G U61G   0.436
52    G17A U62A   0.193
53    G58U A59G    1.02
54     G1C G50A   0.224
55    G11A G28C   0.157
56    U43C G58C   0.936
57    A10U C27A   0.272
58    A13G C57A   0.448
59     A8G A10C   0.666
60    G31A G58U   0.974
61    G47U C63A   0.944
62    G58C G65C   0.703
63    A13G G65C   0.345
64    G30U G68U    0.78
65    C29A G50C    0.71
66    A40C U64C   0.357
67    A16U A52C   0.856
68    G25C C34U   0.219
69    G19A A60G   0.161
70    U46G G48U    1.01
71     C7U C12G   0.822
72    A16U G58U   0.814
73    A40G A52U   0.851
74     A8U A15C   0.812
75    C33A C39G   0.436
76    C18G U55G   0.175
77    U38C U44G   0.851
78     A8U A13U   0.805
79    G19C C63A   0.144
80    U43G U55C   0.312
81     C7G G17U  0.0489
82    C18A C29A   0.127
83    A16G G50C   0.896
84    C22A A42U   0.181
85    A15C G56C   0.446
86    U21C U53G   0.724
87    A15C C45A   0.772
88    A13C A51C   0.827
89    G19A C54G   0.159
90    G37A C66G   0.265
91     G4C U62A   0.157
